Target: C1r from human plasma, activated, two-chain form (Homo sapiens)
Construct: from tissue; host or cells: human plasma
Sequence (P00736 18-463 partner limits assumed): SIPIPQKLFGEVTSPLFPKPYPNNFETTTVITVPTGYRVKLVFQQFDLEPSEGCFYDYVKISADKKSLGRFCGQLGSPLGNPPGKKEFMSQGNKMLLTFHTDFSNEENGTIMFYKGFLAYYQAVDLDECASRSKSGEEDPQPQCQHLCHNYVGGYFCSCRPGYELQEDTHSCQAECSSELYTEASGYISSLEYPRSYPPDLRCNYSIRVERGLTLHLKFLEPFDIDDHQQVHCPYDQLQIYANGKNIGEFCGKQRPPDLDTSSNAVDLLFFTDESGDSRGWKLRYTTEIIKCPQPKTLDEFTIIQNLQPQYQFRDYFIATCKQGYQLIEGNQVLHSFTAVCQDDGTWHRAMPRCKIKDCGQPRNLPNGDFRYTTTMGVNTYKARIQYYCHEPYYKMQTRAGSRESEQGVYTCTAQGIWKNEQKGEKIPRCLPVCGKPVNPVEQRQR
Sequence (P00736 464-705 limits assumed): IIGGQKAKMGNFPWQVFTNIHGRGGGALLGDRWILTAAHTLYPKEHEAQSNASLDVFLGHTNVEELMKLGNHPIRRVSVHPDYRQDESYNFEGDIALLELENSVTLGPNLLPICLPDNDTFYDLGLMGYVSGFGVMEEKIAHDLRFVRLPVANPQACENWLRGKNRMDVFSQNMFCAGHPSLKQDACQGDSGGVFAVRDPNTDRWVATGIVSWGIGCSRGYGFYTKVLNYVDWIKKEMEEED
Assay: Color substrate test for C1r inhibition (Example A)
Assay type: biochemical
Conditions: amidolytic C1r activity, substrate Cbz-Gly-Arg-S-Bzl; read-out: C1R IC50 according to Example A
measureName: IC50 (µM)

For orientation, consider the following solved cases.
{"compound": "CCCCCCCCS(=O)(=O)N[C@H](Cc1ccccc1)C(=O)N1CCC[C@H]1C(=O)NCc1ccc(C(=N)N)cc1", "targetOrSystem": "C1r from human plasma, activated, two-chain form (Homo sapiens)", "IC50, µM": 50}
{"compound": "N=C(N)c1ccc(CNC(=O)[C@@H]2C=CCN2C(=O)[C@H](NCC(=O)O)C2CCCCC2)s1", "targetOrSystem": "C1r from human plasma, activated, two-chain form (Homo sapiens)", "IC50, µM": 0.9}
{"compound": "N=C(N)c1csc(CNC(=O)[C@@H]2CCN2C(=O)[C@H](NCC(=O)O)C2CCCCC2)c1", "targetOrSystem": "C1r from human plasma, activated, two-chain form (Homo sapiens)", "IC50, µM": 2}

P: CC(C)(C)OC(=O)Nc1ccc(CS(=O)(=O)N[C@@H](C(=O)N2CC=C[C@H]2C(=O)NCc2ccc(C(=N)N)nc2)C2CCCCC2)cc1
Q: CCOC(=O)CCCCCN[C@@H](C(=O)N1CCC[C@H]1C(=O)NCc1ccc(C(=N)N)nc1)C1CCCCC1
Exercise: Which of these two has the smaller recorded IC50: P or Q ? Mark your selection by writing its label.
Key: P
(P: 0.9 µM, Q: 50 µM)

1: N=C(N)c1csc(CNC(=O)C2SCCN2C(=O)[C@H](NCC(=O)O)C2CCCCC2)c1 (stereo partly shown)
2: N=C(N)c1csc(CNC(=O)C2SCCN2C(=O)[C@@H](CC2CCCCC2)NCC(=O)O)c1 (stereo partly shown)
Exercise: Which of these two has the smaller recorded IC50: 1 or 2 ? Mark your selection by writing its label.
Key: 1
